Property: Kd; scope: individual binders
Target: T1, CXCL13 (human, UniProt O43927 23-109)
T1 chain: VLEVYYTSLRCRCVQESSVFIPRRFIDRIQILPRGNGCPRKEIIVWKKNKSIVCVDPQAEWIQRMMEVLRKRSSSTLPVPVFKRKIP
Experiment: BLI

BINDER	Kd [nM]
P942 (natural protein, also: glycosylated) DGGNQLSGPQSSANSNEAVFCDTNCTQGTDEAWSGCRGDCFCVYVGNSTEGRCMMLSGDFDYSTPGAED	39.5
P1104 (natural protein, also: glycosylated) ESKEASASQGPGKSFKVEFCETNCTENNGVWSGCTGDCICVSVGDSKEGRCMDLGDKVIDTPVAQG	220
P675 (natural protein, also: glycosylated) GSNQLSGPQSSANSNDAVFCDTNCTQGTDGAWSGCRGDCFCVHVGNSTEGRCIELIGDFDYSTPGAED	582
P1090_IXORI (natural protein) GSKELSGPESSENSIEAAFCDTNCTEGTDGVWSGCSAGCFCVHVGNSTVGRCMTFNGVD	12.5
